SYSTEM: Metabotropic glutamate receptor 5 (Rattus norvegicus) (UniProt P31424)
Sequence (P31424 21-1203 limits assumed): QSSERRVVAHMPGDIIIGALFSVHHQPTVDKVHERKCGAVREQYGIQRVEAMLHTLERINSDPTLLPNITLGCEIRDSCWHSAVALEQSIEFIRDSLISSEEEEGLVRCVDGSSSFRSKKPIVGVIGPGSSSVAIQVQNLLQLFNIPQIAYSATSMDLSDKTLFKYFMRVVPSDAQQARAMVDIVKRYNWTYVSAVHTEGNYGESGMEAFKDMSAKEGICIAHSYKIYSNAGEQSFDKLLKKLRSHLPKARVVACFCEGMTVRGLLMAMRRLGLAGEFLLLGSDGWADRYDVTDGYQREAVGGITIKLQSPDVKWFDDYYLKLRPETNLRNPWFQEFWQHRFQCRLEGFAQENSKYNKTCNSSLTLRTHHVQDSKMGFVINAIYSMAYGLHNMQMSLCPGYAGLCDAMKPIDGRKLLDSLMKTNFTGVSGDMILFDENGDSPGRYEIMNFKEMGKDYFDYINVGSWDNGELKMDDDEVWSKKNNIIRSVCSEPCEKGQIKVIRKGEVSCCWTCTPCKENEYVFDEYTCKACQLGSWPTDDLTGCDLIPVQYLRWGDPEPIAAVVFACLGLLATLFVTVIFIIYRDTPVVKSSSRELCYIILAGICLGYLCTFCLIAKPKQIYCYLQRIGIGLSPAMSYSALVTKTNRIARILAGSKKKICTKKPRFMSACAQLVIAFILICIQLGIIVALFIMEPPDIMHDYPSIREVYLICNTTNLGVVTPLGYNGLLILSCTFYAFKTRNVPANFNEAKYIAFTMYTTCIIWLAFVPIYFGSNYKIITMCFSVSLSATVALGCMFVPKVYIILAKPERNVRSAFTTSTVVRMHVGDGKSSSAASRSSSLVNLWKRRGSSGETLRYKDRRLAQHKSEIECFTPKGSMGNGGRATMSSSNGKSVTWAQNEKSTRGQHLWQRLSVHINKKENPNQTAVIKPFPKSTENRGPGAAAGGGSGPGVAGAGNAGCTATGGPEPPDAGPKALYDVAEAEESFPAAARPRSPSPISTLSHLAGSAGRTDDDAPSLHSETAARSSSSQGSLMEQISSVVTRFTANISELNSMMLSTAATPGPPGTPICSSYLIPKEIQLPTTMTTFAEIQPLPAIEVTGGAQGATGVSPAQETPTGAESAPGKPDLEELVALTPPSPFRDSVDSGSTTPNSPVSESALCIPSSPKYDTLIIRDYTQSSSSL
TEST_SUMMARY: Agonist activity at rat mGluR5 expressed in HEK293T cells assessed as increase of glutamate-induced calcium flux by calcium fluorescence assay relative to control
Format: functional, cell-based
EXPERIMENTAL_SETUP: HEK-293T
EXPERIMENTAL_READOUT: Activity (%)

CHEMICAL_STRING	SYSTEM	Activity [%]
N#Cc1cc(C(=O)Nc2cc(-c3ccccc3)nn2-c2ccccc2Cl)ccc1-c1cccc2ccccc12	Metabotropic glutamate receptor 5 (Rattus norvegicus) (UniProt P31424)	50.2
O=C(Nc1cc(-c2ccccc2)nn1-c1ccccc1Cl)c1cc(-c2cc(F)cc(F)c2)ccn1	Metabotropic glutamate receptor 5 (Rattus norvegicus) (UniProt P31424)	67.6
N#Cc1cc(C(=O)Nc2cc(-c3ccccc3)nn2-c2ccccc2Cl)ccc1-c1ccccc1	Metabotropic glutamate receptor 5 (Rattus norvegicus) (UniProt P31424)	61.8
N#Cc1cc(C(=O)Nc2cc(-c3ccccc3)nn2-c2ccccc2Cl)ccc1-c1ccc(F)cc1	Metabotropic glutamate receptor 5 (Rattus norvegicus) (UniProt P31424)	68

###

Recorded Ki values (Metabotropic glutamate receptor 5 (Rattus norvegicus, UniProt P31424)) are given below.
EXPERIMENTAL_READOUT: Ki (nM)

P. CCc1cccc(NC(=O)c2cc(F)cc(C#N)c2)n1
Q. Cc1ccc(NC(=O)c2cc(F)cc(C#N)c2)nc1
R. N#Cc1cc(C(=O)Nc2cc(-c3ccccc3)nn2-c2ccccc2Cl)ccc1-c1ccccc1
Data request: Lab note: rank above entries, Ki ascending. API: response body holds the labels in the requested order.
Data returned: R, P, Q
(R: 37 nM, P: 762 nM, Q: 2830 nM)

###

SYSTEM: Metabotropic glutamate receptor 5 (Rattus norvegicus, UniProt P31424)
Sequence (P31424 whole entry): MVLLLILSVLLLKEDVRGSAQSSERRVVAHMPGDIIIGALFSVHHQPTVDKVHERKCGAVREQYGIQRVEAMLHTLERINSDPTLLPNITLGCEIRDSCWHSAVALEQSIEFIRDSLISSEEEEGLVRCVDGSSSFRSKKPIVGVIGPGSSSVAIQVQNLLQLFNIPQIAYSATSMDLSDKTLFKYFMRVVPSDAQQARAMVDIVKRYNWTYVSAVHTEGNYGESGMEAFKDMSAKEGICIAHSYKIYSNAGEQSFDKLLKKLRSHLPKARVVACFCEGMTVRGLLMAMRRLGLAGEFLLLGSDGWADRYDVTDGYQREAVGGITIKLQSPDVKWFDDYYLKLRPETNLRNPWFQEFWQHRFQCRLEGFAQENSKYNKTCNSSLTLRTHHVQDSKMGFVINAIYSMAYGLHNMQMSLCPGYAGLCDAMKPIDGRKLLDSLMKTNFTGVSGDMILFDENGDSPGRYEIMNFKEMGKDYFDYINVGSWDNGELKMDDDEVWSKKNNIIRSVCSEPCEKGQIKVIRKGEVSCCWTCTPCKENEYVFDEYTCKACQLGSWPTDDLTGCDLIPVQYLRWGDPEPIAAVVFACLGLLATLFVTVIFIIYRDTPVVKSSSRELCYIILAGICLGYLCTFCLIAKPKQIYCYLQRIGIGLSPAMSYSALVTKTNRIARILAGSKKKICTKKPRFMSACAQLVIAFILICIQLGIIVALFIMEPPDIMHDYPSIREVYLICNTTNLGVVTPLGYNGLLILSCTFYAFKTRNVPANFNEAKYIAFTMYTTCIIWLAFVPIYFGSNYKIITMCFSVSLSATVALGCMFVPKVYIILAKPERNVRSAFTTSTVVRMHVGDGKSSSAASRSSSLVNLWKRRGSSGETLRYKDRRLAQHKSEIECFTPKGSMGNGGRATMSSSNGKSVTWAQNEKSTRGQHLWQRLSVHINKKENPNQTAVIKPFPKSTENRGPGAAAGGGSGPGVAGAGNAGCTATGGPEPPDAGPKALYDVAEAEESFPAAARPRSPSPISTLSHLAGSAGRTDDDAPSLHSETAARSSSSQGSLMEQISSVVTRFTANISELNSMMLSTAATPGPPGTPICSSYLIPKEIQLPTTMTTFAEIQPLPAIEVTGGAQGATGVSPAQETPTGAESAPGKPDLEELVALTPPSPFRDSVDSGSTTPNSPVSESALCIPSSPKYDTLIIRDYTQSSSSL
TEST_SUMMARY: Antagonist activity at rat mGluR5 expressed in HEK293T cells assessed as inhibition of glutamate-induced calcium flux by calcium fluorescence assay
pIC50: −log10 of the molar value.
EXPERIMENTAL_READOUT: pIC50

CHEMICAL_STRING	VAL
CCCCc1cccc(NC(=O)c2cc(F)cc(C#N)c2)n1	5.81
CCCc1cccc(NC(=O)c2cc(F)cc(C#N)c2)n1	6.78

P. CCc1cccc(NC(=O)c2cc(F)cc(C#N)c2)n1
Q. Cc1ccc(NC(=O)c2cc(F)cc(C#N)c2)nc1
Data request: Which of these two has the smaller recorded pIC50: P or Q ? Kindly state the label of the option you pick.
Data returned: Q

###

SYSTEM: Metabotropic glutamate receptor 5 (Rattus norvegicus, UniProt P31424)
TEST_SUMMARY: Agonist activity at rat mGluR5 expressed in HEK293T cells assessed as effect on glutamate-induced calcium flux by calcium fluorescence assay
pEC50: −log10 of the molar value.
EXPERIMENTAL_READOUT: pEC50

CHEMICAL_STRING	pEC50
N#Cc1cc(C(=O)Nc2cc(-c3ccccc3)nn2-c2ccccc2Cl)ccc1-c1cccc2ccccc12	5.66

P. N#Cc1cc(C(=O)Nc2cc(-c3ccccc3)nn2-c2ccccc2Cl)ccc1-c1ccc(F)cc1
Q. N#Cc1cc(C(=O)Nc2cc(-c3ccccc3)nn2-c2ccccc2Cl)ccc1-c1ccccc1
R. O=C(Nc1cc(-c2ccccc2)nn1-c1ccccc1Cl)c1cc(-c2cc(F)cc(F)c2)ccn1
Data request: List items by pEC50 in falling order. API: response body holds the labels in the requested order.
Data returned: R, P, Q
(R: 6.19, P: 5.61, Q: 5.38)
